system: Escherichia coli; assay: Antimicrobial activity against beta lactamase CTX-M-10 producing Escherichia coli GB20 by broth microdilution method; assay type: functional
Reported Endpoint: MIC

>>> print(df.to_string())
                                   compound       result
0  CO/N=C(\C(=O)N[C@@H]1C(=O)N2C(C(=O)O)=C(COC(C)=O)CS[C@H]12)c1csc(N)n1    256 µg/mL
1  CC(C)(O/N=C(\C(=O)N[C@@H]1C(=O)N2C(C(=O)[O-])=C(C[n+]3ccccc3)CS[C@H]12)c1csc(N)n1)C(=O)O      1 µg/mL
2  CO/N=C(\C(=O)N[C@@H]1C(=O)N2C(C(=O)O)=C(COC(N)=O)CS[C@H]12)c1ccco1  ≥ 256 µg/mL
3  CO/N=C(\C(=O)N[C@@H]1C(=O)N2C(C(=O)[O-])=C(C[N+]3(C)CCCC3)CS[C@H]12)c1csc(N)n1 [CEFEPIME]     32 µg/mL

---

Known MIC of a selection of molecules
system: Escherichia coli; assay: Antimicrobial activity against Escherichia coli GB20 harboring V27A, Q38R, A77V, P167S mutation in beta lactamase CTX-M-3 by broth microdilution method; format: functional
Reported Endpoint: MIC (µg/mL)

>>> print(df.to_string())
                                   molecule       target_desc  quantitative_readout
0  CC(C)(O/N=C(\C(=O)N[C@@H]1C(=O)N2C(C(=O)[O-])=C(C[n+]3ccccc3)CS[C@H]12)c1csc(N)n1)C(=O)O  Escherichia coli                    32
1  CO/N=C(\C(=O)N[C@@H]1C(=O)N2C(C(=O)O)=C(COC(C)=O)CS[C@H]12)c1csc(N)n1  Escherichia coli                     4
2  CO/N=C(\C(=O)N[C@@H]1C(=O)N2C(C(=O)[O-])=C(C[N+]3(C)CCCC3)CS[C@H]12)c1csc(N)n1 [CEFEPIME]  Escherichia coli                  0.25
3  CO/N=C(\C(=O)N[C@@H]1C(=O)N2C(C(=O)O)=C(COC(N)=O)CS[C@H]12)c1ccco1  Escherichia coli                    64
